# System: ANGPTL3 gene
# Assay summary: Example 4: serum LDL in mice
# Format: in vivo, C57bl/6 mice
# Protocol conditions: Day 43; 1.0 mg/kg single SC injection on day 1; serum; n=3
In the oligonucleotide strings, read from the 5' end, every base follows the letter of its sugar. An asterisk marks phosphorothioate; unmarked linkages are phosphodiester. Other units and linkages are bracketed, terminal groups are in braces. A string of capitals states the bases alone. {NAG37} = tridentate N-acetyl-galactosamine targeting ligand, structure (NAG37)s; [invAb] = inverted abasic unit; m = 2'-O-methyl; f = 2'-fluoro
Items are presented alongside their recorded Avg LDL, normalized to pre-treatment and control.
Quantity measured: Avg LDL, normalized to pre-treatment and control

Substance	Recorded measurement
AD05308: RNAi agent duplex: antisense AM07003-AS, sense AM07002-SS (chain 1 mU*fG*mU*fUmGfAmAfUmUfAmAfUmGfUmCfCmAfUmGfG*mA; chain 2 {NAG37}*[invAb]*mUmCmCmAmUmGmGmAfCfAfUmUmAmAmUmUmCmAmAmCmA*[invAb])	1.033
AD05488: RNAi agent duplex: antisense AM07235-AS, sense AM07234-SS (antisense mU*fA*mC*fUmGfAmUfCmAfAmAfUmAfUmGfUmUfGmAfG*mC; sense {NAG37}*[invAb]*mGmCmUmCmAmAmCmAfUfAfUmUmUmGmAmUmCmAmGmUmA*[invAb])	0.902
AD05487: RNAi agent duplex: antisense AM07233-AS, sense AM07232-SS (antisense mU*fA*mC*fUmGfAmUfCmAfAmAfUmAfUmGfUmUfGmAfG*mU; sense {NAG37}*[invAb]*mAmCmUmCmAmAmCmAfUfAfUmUmUmGmAmUmCmAmGmUmA*[invAb])	0.989
AD05418: RNAi agent duplex: antisense AM07159-AS, sense AM07158-SS (antisense mU*fU*mU*fGmAfAmUfUmAfAmUfGmUfCmCfAmUfGmGfG*mU; sense {NAG37}*[invAb]*mAmCmCmCmAmUmGmGfAfCfAmUmUmAmAmUmUmCmAmAmA*[invAb])	0.921

* * *

# System: ANGPTL3 gene
# Assay summary: Example 4: serum total cholesterol in mice
# Type: in vivo, C57bl/6 mice
# Protocol conditions: Day 15, 1.0 mg/kg single SC injection on day 1, n=3
# Excerpt: To assess the in vivo activity of ANGPTL3 RNAi agents that are designed to target additional positions on the ANGPTL3 gene, six- to eight-week-old female C57bl/6 mice were used. Pre-dose serum samples were taken at day −1 after a four hour fast. […]
In the oligonucleotide strings, read from the 5' end, every base follows the letter of its sugar. An asterisk marks phosphorothioate; unmarked linkages are phosphodiester. Other units and linkages are bracketed, terminal groups are in braces. A string of capitals states the bases alone. {NAG37} = tridentate N-acetyl-galactosamine targeting ligand, structure (NAG37)s; [invAb] = inverted abasic unit; m = 2'-O-methyl; f = 2'-fluoro
Items are presented alongside their recorded Avg Total Chol, normalized to pre-treatment and control.
Quantity measured: Avg Total Chol, normalized to pre-treatment and control

Substance	System name	Recorded measurement
AD05308: RNAi agent duplex: antisense AM07003-AS, sense AM07002-SS (chain 1 mU*fG*mU*fUmGfAmAfUmUfAmAfUmGfUmCfCmAfUmGfG*mA; chain 2 {NAG37}*[invAb]*mUmCmCmAmUmGmGmAfCfAfUmUmAmAmUmUmCmAmAmCmA*[invAb])	ANGPTL3 gene	0.793
AD05487: RNAi agent duplex: antisense AM07233-AS, sense AM07232-SS (antisense mU*fA*mC*fUmGfAmUfCmAfAmAfUmAfUmGfUmUfGmAfG*mU; sense {NAG37}*[invAb]*mAmCmUmCmAmAmCmAfUfAfUmUmUmGmAmUmCmAmGmUmA*[invAb])	ANGPTL3 gene	0.944
AD05488: RNAi agent duplex: antisense AM07235-AS, sense AM07234-SS (antisense mU*fA*mC*fUmGfAmUfCmAfAmAfUmAfUmGfUmUfGmAfG*mC; sense {NAG37}*[invAb]*mGmCmUmCmAmAmCmAfUfAfUmUmUmGmAmUmCmAmGmUmA*[invAb])	ANGPTL3 gene	0.667
AD05418: RNAi agent duplex: antisense AM07159-AS, sense AM07158-SS (antisense mU*fU*mU*fGmAfAmUfUmAfAmUfGmUfCmCfAmUfGmGfG*mU; sense {NAG37}*[invAb]*mAmCmCmCmAmUmGmGfAfCfAmUmUmAmAmUmUmCmAmAmA*[invAb])	ANGPTL3 gene	0.761

* * *

# Tested on: ANGPTL3 gene
# Assay summary: Example 7: serum total cholesterol in mice
# Assay type: in vivo, C57bl/6 mice
# Design: key: ratio: (level/pre-treatment day -1 level) ÷ mean of D5W control group
# Protocol conditions: Day 29, 0.5 mg/kg single SC injection on day 1, n=3
In the oligonucleotide strings, read from the 5' end, every base follows the letter of its sugar. An asterisk marks phosphorothioate; unmarked linkages are phosphodiester. Other units and linkages are bracketed, terminal groups are in braces. A string of capitals states the bases alone. {NAG37} = tridentate N-acetyl-galactosamine targeting ligand, structure (NAG37)s; [invAb] = inverted abasic unit; m = 2'-O-methyl; f = 2'-fluoro
Mark each entry Fulfilled if its Avg Total Chol, normalized to pre-treatment and control sits below 1, and Not fulfilled for all others.

Substance	Group label
AD05488: RNAi agent duplex: antisense AM07235-AS, sense AM07234-SS (antisense mU*fA*mC*fUmGfAmUfCmAfAmAfUmAfUmGfUmUfGmAfG*mC; sense {NAG37}*[invAb]*mGmCmUmCmAmAmCmAfUfAfUmUmUmGmAmUmCmAmGmUmA*[invAb])	Fulfilled
AD05308: RNAi agent duplex: antisense AM07003-AS, sense AM07002-SS (chain 1 mU*fG*mU*fUmGfAmAfUmUfAmAfUmGfUmCfCmAfUmGfG*mA; chain 2 {NAG37}*[invAb]*mUmCmCmAmUmGmGmAfCfAfUmUmAmAmUmUmCmAmAmCmA*[invAb])	Fulfilled
AD05775: RNAi agent duplex: antisense AM07235-AS, sense AM07608-SS (antisense UACUGAUCAAAUAUGUUGAGC; sense GCUCAACAUNUUUGAUCAGUA; (NAG37)s GalNAc ligand; RNAi agent antisense strand modified sequence; RNAi agent sense strand modified sequence; modified_base 10 n = 2′-O-methyl-2-aminoadenosine-3′-phosphate)	Not fulfilled

* * *

# Test system: ANGPTL3 gene
# Assay summary: Example 7: serum HDL in mice
# Format: in vivo
# Design: key: ratio: (level/pre-treatment day -1 level) ÷ mean of D5W control group
# Protocol conditions: Day 29; 0.5 mg/kg single SC injection day 1; female C57bl/6 mice, n=3; ratio to D5W control
In the oligonucleotide strings, read from the 5' end, every base follows the letter of its sugar. An asterisk marks phosphorothioate; unmarked linkages are phosphodiester. Other units and linkages are bracketed, terminal groups are in braces. A string of capitals states the bases alone. {NAG37} = tridentate N-acetyl-galactosamine targeting ligand, structure (NAG37)s; [invAb] = inverted abasic unit; m = 2'-O-methyl; f = 2'-fluoro
Quantity measured: Avg HDL, normalized to pre-treatment and control

Substance	System name	Recorded measurement
AD05488: RNAi agent duplex: antisense AM07235-AS, sense AM07234-SS (antisense mU*fA*mC*fUmGfAmUfCmAfAmAfUmAfUmGfUmUfGmAfG*mC; sense {NAG37}*[invAb]*mGmCmUmCmAmAmCmAfUfAfUmUmUmGmAmUmCmAmGmUmA*[invAb])	ANGPTL3 gene	0.886
AD05308: RNAi agent duplex: antisense AM07003-AS, sense AM07002-SS (chain 1 mU*fG*mU*fUmGfAmAfUmUfAmAfUmGfUmCfCmAfUmGfG*mA; chain 2 {NAG37}*[invAb]*mUmCmCmAmUmGmGmAfCfAfUmUmAmAmUmUmCmAmAmCmA*[invAb])	ANGPTL3 gene	0.905
AD05418: RNAi agent duplex: antisense AM07159-AS, sense AM07158-SS (antisense mU*fU*mU*fGmAfAmUfUmAfAmUfGmUfCmCfAmUfGmGfG*mU; sense {NAG37}*[invAb]*mAmCmCmCmAmUmGmGfAfCfAmUmUmAmAmUmUmCmAmAmA*[invAb])	ANGPTL3 gene	1.048
AD05777: RNAi agent duplex: antisense AM07235-AS, sense AM07610-SS (antisense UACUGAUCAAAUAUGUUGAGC; sense GCUCAACNUNUUUGAUCAGUA; (NAG37)s GalNAc ligand; RNAi agent antisense strand modified sequence; RNAi agent sense strand modified sequence; modified_base 8, 10 n = 2′-O-methyl-2-aminoadenosine-3′-phosphate)	ANGPTL3 gene	1.008
AD05775: RNAi agent duplex: antisense AM07235-AS, sense AM07608-SS (antisense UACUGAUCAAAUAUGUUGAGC; sense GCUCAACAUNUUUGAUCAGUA; (NAG37)s GalNAc ligand; RNAi agent antisense strand modified sequence; RNAi agent sense strand modified sequence; modified_base 10 n = 2′-O-methyl-2-aminoadenosine-3′-phosphate)	ANGPTL3 gene	1.069
